Data origin: patent US6355799B1

Kindly state phytotoxicity rating CORN for each of the entries shown.
Tested on: field corn (Zea mays L., var. Dekalb 535, CORN)
testDescription: Post-emerge test, crop safety
Format: in vivo
conditionNotes: post-emerge, 250 g ai/ha, 14 days after application, rating scale 0-100

Some solved entries appear below for comparison.
INSERT INTO assay_data (smilestext, endpointlabel, assayresult) VALUES
  ('COc1c(Cl)cc(F)c(-n2c(=S)cc(C(F)(F)F)n(C)c2=O)c1NC(=S)c1ccc(F)cc1F', 'phytotoxicity rating CORN', 20),
  ('COc1c(Cl)cc(F)c(-n2c(=O)cc(C(F)(F)F)n(C)c2=O)c1NC(=O)C=Cc1ccc(Cl)cc1', 'phytotoxicity rating CORN', 10),
  ('COc1c(Cl)cc(F)c(-n2c(=O)cc(C(F)(F)F)n(C)c2=O)c1NC(=O)c1ccc(-c2ccccc2)cc1', 'phytotoxicity rating CORN', 0),
  ('COc1c(Cl)cc(F)c(-n2c(=O)cc(C(F)(F)F)n(C)c2=O)c1NC(=O)c1cccc(F)c1F', 'phytotoxicity rating CORN', 80),
  ('CCOC(=O)C(=O)Nc1c(OC)c(Cl)cc(F)c1-n1c(=O)cc(C(F)(F)F)n(C)c1=O', 'phytotoxicity rating CORN', 20);

I need phytotoxicity rating CORN for every entry listed below, if you could help.
1. COc1c(Cl)cc(F)c(-n2c(=O)cc(C(F)(F)F)n(C)c2=O)c1NC(=O)c1ccc(Br)cc1
2. COc1c(Cl)cc(F)c(-n2c(=O)cc(C(F)(F)F)n(C)c2=O)c1NC(=O)C=Cc1ccco1
3. COc1c(Cl)cc(F)c(-n2c(=O)cc(C(F)(F)F)n(C)c2=O)c1N(C(=O)c1ccc(Cl)nc1)C(=O)c1ccc(Cl)nc1
4. COc1c(Cl)cc(F)c(-n2c(=O)cc(C(F)(F)F)n(C)c2=O)c1NC(=O)c1cccc2ccccc12
5. COc1c(Cl)cc(F)c(-n2c(=O)cc(C(F)(F)F)n(C)c2=O)c1NC(=O)c1ccc(F)c(F)c1
6. COc1c(Cl)cc(F)c(-n2c(=O)cc(C(F)(F)F)n(C)c2=O)c1NC(=O)c1ccc(C(F)(F)F)cc1
7. COc1c(Cl)cc(F)c(-n2c(=O)cc(C(F)(F)F)n(C)c2=O)c1NC(=O)c1ccc(CCl)cc1
8. COc1c(Cl)cc(F)c(-n2c(=O)cc(C(F)(F)F)n(C)c2=O)c1NC(=O)c1ccccc1Cl

Response:
[90, 30, 80, 15, 70, 40, 20, 70]

I need phytotoxicity rating CORN for every entry listed below, if you could help.
1. COc1c(Cl)cc(F)c(-n2c(=O)cc(C(F)(F)F)n(N)c2=O)c1NC(=O)c1ccc(F)cc1F
2. COc1c(Cl)cc(F)c(-n2c(=O)cc(C(F)(F)F)n(C)c2=O)c1NC(=O)c1cc([N+](=O)[O-])cc([N+](=O)[O-])c1
3. COc1c(Cl)cc(F)c(-n2c(=O)cc(C(F)(F)F)n(C)c2=O)c1NC(=O)CC#N

Response:
1: 20; 2: 0; 3: 60

###

Tested on: sicklepod (Cassia obtusifolia, CASOB)
testDescription: Post-emerge test, greenhouse herbicide activity screening
Format: in vivo
conditionNotes: 63 g ai/ha; post-emerge; 14 days after application; rating scale 0-100
Is Post-emerge Herbicidal Activity CASOB (phytotoxicity rating) at least 80? Then condition met. If not, condition not met.

INSERT INTO results (compound, targetortestsystem, grouplabel) VALUES
  ('CCOC(=O)C(Cl)Cc1c(OC)c(Cl)cc(F)c1-c1nn(C)c(C(F)(F)F)c1Cl (centres unmarked) [14-56]', 'sicklepod (Cassia obtusifolia, CASOB)', 'condition not met'),
  ('COc1c(Cl)cc(F)c(-n2c(=O)cc(C(F)(F)F)n(C)c2=O)c1OC(=O)c1ccc2ccccc2c1 [Compound 16-7]', 'sicklepod (Cassia obtusifolia, CASOB)', 'condition not met'),
  ('CCOC(=O)C(Cl)Cc1cc(Cl)cc(F)c1-n1c(=O)cc(C(F)(F)F)n(C)c1=O (centres unmarked) [14-60]', 'sicklepod (Cassia obtusifolia, CASOB)', 'condition not met');

Request: hey, is Post-emerge Herbicidal Activity CASOB (phytotoxicity rating) for this one >= 80? CCOC(=O)C(Cl)Cc1c(OCC)c(Cl)cc(F)c1-n1c(=O)cc(C(F)(F)F)n(C)c1=O (centres unmarked) [14-63]
Response: condition met

Request: hey, is Post-emerge Herbicidal Activity CASOB (phytotoxicity rating) for this one >= 80? COc1c(Cl)cc(F)c(-n2c(=O)cc(C(F)(F)F)n(C)c2=O)c1NN=C(C(F)(F)F)C(F)(F)F [15-21]
Response: condition met

Request: hey, is Post-emerge Herbicidal Activity CASOB (phytotoxicity rating) for this one >= 80? COc1c(Cl)cc(F)c(-n2c(=O)cc(C(F)(F)F)n(C)c2=O)c1NNC(=O)Nc1ccc(F)cc1F [15-8]
Response: condition not met

Request: hey, is Post-emerge Herbicidal Activity CASOB (phytotoxicity rating) for this one >= 80? COc1c(Cl)cc(F)c(-n2c(=O)cc(C(F)(F)F)n(C)c2=O)c1SC [Compound 17-1]
Response: condition not met

###

Test system: field corn (Zea mays L., var. Dekalb 535, CORN)
testDescription: Pre-emerge test, crop safety
Assay type: in vivo
conditionNotes: 250 g ai/ha; rating scale 0-100, 14 days after application
Kindly state Pre-emerge phytotoxicity rating, crop damage CORN for each of the entries shown.
Numbers only.

INSERT INTO assay_data (compound, targetortestsystem, assayresult) VALUES
  ('CCOC(=O)C(Br)Cc1c(OC)c(Cl)cc(F)c1-n1c(=O)cc(C(F)(F)F)n(C)c1=O (single isomer, unassigned) [14-33]', 'field corn (Zea mays L., var. Dekalb 535, CORN)', 20);

I need Pre-emerge phytotoxicity rating, crop damage CORN for every entry listed below, if you could help.
1. COc1c(Cl)cc(F)c(N2C(=O)c3ccccc3C2=O)c1NC(=O)c1ccc(F)cc1F
2. COc1c(Cl)cc(F)c(-n2c(=O)cc(C(F)(F)F)n(C)c2=O)c1CC(Cl)C(=O)OCC(Br)CBr (single isomer, unassigned) [14-31]
3. O=C(Nc1cc(Cl)ccc1N1C(=O)C2CCCCN2C1=O)c1ccc2ccccc2c1 (centres unmarked)
4. COC(=O)C(Cl)Cc1c(OC)c(Cl)cc(F)c1-n1c(=O)cc(C(F)(F)F)n(C)c1=O (centres unmarked)

Response:
1. 15
2. 30
3. 0
4. 90

###

Kindly state Pre-emerge herbicidal activity, phytotoxicity rating IPOHE for each of the entries shown.
Test system: ivyleaf morningglory (Ipomoea hederacea, IPOHE)
testDescription: Pre-emerge test, greenhouse herbicide activity screening
Type: in vivo
conditionNotes: 250 g ai/ha; rating scale 0-100, 14 days after application
Give bare numbers.

INSERT INTO results (compound, assayresult) VALUES
  ('CCCCOC(=O)C(Cl)Cc1c(OC)c(Cl)cc(F)c1-n1c(=O)cc(C(F)(F)F)n(C)c1=O (single isomer, unassigned)', 0),
  ('COc1c(Cl)cc(F)c(-n2c(=O)cc(C(F)(F)F)n(C)c2=O)c1CC(Cl)C(=O)OC(C)(C)C (stereo not drawn)', 20),
  ('COc1c(Cl)cc(F)c(-n2c(=O)cc(C(F)(F)F)n(C)c2=O)c1CC(Cl)C(=O)OCC(F)(F)C(F)F (stereo not drawn)', 0),
  ('COc1c(Cl)cc(F)c(-n2c(=O)cc(C(F)(F)F)n(C)c2=O)c1CC(C)(Cl)C(=O)OC(C)C (stereo not drawn)', 0),
  ('CCCCOC(=O)C(C)(Cl)Cc1c(OC)c(Cl)cc(F)c1-n1c(=O)cc(C(F)(F)F)n(C)c1=O (stereo not drawn)', 0),
  ('Nc1c(O)c(Cl)cc(F)c1N1C(=O)C2CCCCN2C1=S (single isomer, unassigned)', 90),
  ('COc1c(Cl)cc(F)c(-n2c(=O)cc(C(F)(F)F)n(C)c2=O)c1CC(C)(Cl)C(=O)OCc1ccccc1 (stereo not drawn)', 40),
  ('COc1c(Cl)cc(F)c(-n2c(=O)cc(C(F)(F)F)n(C)c2=O)c1CC(Cl)C(=O)OCCOc1ccccc1 (single isomer, unassigned) [14-28]', 0);

Shifting focus to the compound that follows.
Request: Request the reported Pre-emerge herbicidal activity, phytotoxicity rating IPOHE associated with C#CCOC(=O)C(Cl)Cc1c(OC)c(Cl)cc(F)c1-n1c(=O)cc(C(F)(F)F)n(C)c1=O (single isomer, unassigned) [14-20]
Response: 0

###

Tested on: lambsquarters (Chenopodium album, CHEAL)
testDescription: Pre-emerge test, greenhouse herbicide activity screening
Assay type: in vivo
conditionNotes: pre-emerge, rate 250 g ai/ha, phytotoxicity rating 0-100 at 14 days after application
Kindly state Pre-emerge Herbicidal Activity CHEAL for each of the entries shown.
Numbers only.

I need Pre-emerge Herbicidal Activity CHEAL for every entry listed below, if you could help.
1. COc1c(Cl)cc(F)c(N2C(=O)C3=C(CCCC3)C2=O)c1NC(=O)C=Cc1ccccc1
2. O=C(Nc1cc(Cl)ccc1-n1c(=O)n2n(c1=S)CCCC2)c1ccc2ccccc2c1

Response:
1. 100
2. 100
